Tested on: Dengue virus
Test: Inhibition of DENV RNA-dependent RNA polymerase at 1 ug/ml
Conditions: dose 1.0 µg/ml
Measurement Name: inhibition (%)

// known answers, use as guide
CC(=O)OC/C=C(\C)[C@@H]1C(C)=C[C@@H]2CC[C@H](O)[C@H](C)[C@H]2[C@@H]1/C=C/C=C/C(=O)O ... 10.5
C/C=C(\C)[C@@H]1C(C)=C[C@@H]2CC(=O)C[C@H](C)[C@H]2[C@@H]1/C=C/C=C/C(=O)O ... 7.9
CC1=C[C@@H]2CCC[C@H](C)[C@H]2[C@H](/C=C/C=C/C(=O)O)[C@@H]1/C(C)=C/CO ... 13.2
C/C=C(\C)[C@@H]1C(C)=C[C@@H]2C[C@@H](O)C[C@H](C)[C@H]2[C@@H]1/C=C/C=C/C(=O)O ... 15.3
CC(=O)OC/C=C(\C)[C@@H]1C(C)=C[C@@H]2CC(=O)C[C@H](C)[C@H]2[C@@H]1/C=C/C=C/C(=O)O ... 0

a = CC1=C[C@@H]2C[C@@H](O)C[C@H](C)[C@H]2[C@H](/C=C/C=C/C(=O)O)[C@@H]1/C(C)=C/CO
b = CC1=C[C@@H]2CC(=O)C[C@H](C)[C@H]2[C@H](/C=C/C=C/C(=O)O)[C@@H]1/C(C)=C/CO
QUERY: Please indicate which item has the smaller measured inhibition: a versus b Answer format: the label of the selected item.
RESULT: b
(b: 0%, a: 2%)

P = CC(=O)OC/C=C(\C)[C@@H]1C(C)=C[C@@H]2C[C@H](O)C[C@H](C)[C@H]2[C@@H]1/C=C/C=C/C(=O)O
Q = CC1=C[C@@H]2CC[C@@H](O)[C@H](C)[C@H]2[C@H](/C=C/C=C/C(=O)O)[C@@H]1/C(C)=C/CO
R = CC(=O)OC/C=C(\C)[C@@H]1C(C)=C[C@@H]2CC[C@@H](O)[C@H](C)[C@H]2[C@@H]1/C=C/C=C/C(=O)O
S = C/C=C(\C)[C@@H]1C(C)=C[C@@H]2C[C@@H](OC(C)=O)C[C@H](C)[C@H]2[C@@H]1/C=C/C=C/C(=O)O
QUERY: // smallest inhibition at index 0, largest at the end // list labels; follow requested order
RESULT: Q, S, P, R
(Q: 0%, S: 2.8%, P: 4.7%, R: 26%)

---

Test system: Zika virus
Experiment: Inhibition of NS5 in Zika virus at 10 ug/ml after 10 mins in presence of nucleotide mix by fluorescence assay
Conditions: dose 10.0 µg/ml
Measurement Name: inhibition (%)

CC(=O)OC/C=C(\C)[C@@H]1C(C)=C[C@@H]2CC[C@@H](O)[C@H](C)[C@H]2[C@@H]1/C=C/C=C/C(=O)O ... 18.1
C/C=C(\C)[C@@H]1C(C)=C[C@@H]2C[C@@H](OC(C)=O)C[C@H](C)[C@H]2[C@@H]1/C=C/C=C/C(=O)O ... 21.5
CC1=C[C@@H]2CCC[C@H](C)[C@H]2[C@H](/C=C/C=C/C(=O)O)[C@@H]1/C(C)=C/CO ... 21

A = CC(=O)OC/C=C(\C)[C@@H]1C(C)=C[C@@H]2CC(=O)C[C@H](C)[C@H]2[C@@H]1/C=C/C=C/C(=O)O
B = CC(=O)OC/C=C(\C)[C@@H]1C(C)=C[C@@H]2C[C@H](O)C[C@H](C)[C@H]2[C@@H]1/C=C/C=C/C(=O)O
C = CC1=C[C@@H]2C[C@H](O)C[C@H](C)[C@H]2[C@H](/C=C/C=C/C(=O)O)[C@@H]1/C(C)=C/CO
D = CC1=C[C@@H]2CC[C@@H](O)[C@H](C)[C@H]2[C@H](/C=C/C=C/C(=O)O)[C@@H]1/C(C)=C/CO
QUERY: Please list these in order of increasing inhibition. Thank you! Your task in answering is to list the labels in the requested order.
RESULT: B, C, D, A

---

Test system: Dengue virus
Test: Inhibition of DENV RNA-dependent RNA polymerase at 10 ug/ml
Details: dose 10.0 µg/ml
Measurement Name: inhibition (%)

a = C/C=C(\C)[C@@H]1C(C)=C[C@@H]2C[C@H](O)C[C@H](C)[C@H]2[C@@H]1/C=C/C=C/C(=O)O
b = CC1=C[C@@H]2CC(=O)C[C@H](C)[C@H]2[C@H](/C=C/C=C/C(=O)O)[C@@H]1/C(C)=C/CO
QUERY: Could you determine which record has the numerically smaller inhibition? Candidates: a and b Indicate which entry you chose by stating its label.
RESULT: b
(b: 23.8%, a: 46%)

---

System: Dengue virus
Test: Inhibition of DENV RNA-dependent RNA polymerase at 10 ug/ml
Settings: dose 10.0 µg/ml
Measurement Name: inhibition (%)

Examples with answers:
CC1=C[C@@H]2CC[C@@H](O)[C@H](C)[C@H]2[C@H](/C=C/C=C/C(=O)O)[C@@H]1/C(C)=C/CO ... 29.7
CC(=O)OC/C=C(\C)[C@@H]1C(C)=C[C@@H]2CC[C@H](O)[C@H](C)[C@H]2[C@@H]1/C=C/C=C/C(=O)O ... 61
C/C=C(\C)[C@@H]1C(C)=C[C@@H]2C[C@@H](O)C[C@H](C)[C@H]2[C@@H]1/C=C/C=C/C(=O)O ... 59.4
C/C=C(\C)[C@@H]1C(C)=C[C@@H]2CC(=O)C[C@H](C)[C@H]2[C@@H]1/C=C/C=C/C(=O)O ... 65.6
CC1=C[C@@H]2C[C@H](O)C[C@H](C)[C@H]2[C@H](/C=C/C=C/C(=O)O)[C@@H]1/C(C)=C/CO ... 28.7
C/C=C(\C)[C@@H]1C(C)=C[C@@H]2C[C@@H](OC(C)=O)C[C@H](C)[C@H]2[C@@H]1/C=C/C=C/C(=O)O ... 62.3
CC(=O)OC/C=C(\C)[C@@H]1C(C)=C[C@@H]2CC(=O)C[C@H](C)[C@H]2[C@@H]1/C=C/C=C/C(=O)O ... 36.4

a = CC1=C[C@@H]2C[C@@H](O)C[C@H](C)[C@H]2[C@H](/C=C/C=C/C(=O)O)[C@@H]1/C(C)=C/CO
b = CC(=O)OC/C=C(\C)[C@@H]1C(C)=C[C@@H]2C[C@H](O)C[C@H](C)[C@H]2[C@@H]1/C=C/C=C/C(=O)O
QUERY: Could you determine which record has the numerically smaller inhibition? Candidates: a and b State the label of the item chosen.
RESULT: b
(b: 28.9%, a: 49%)

---

Test: Inhibition of DENV RNA-dependent RNA polymerase
Set-up: species or system Dengue virus
Measurement Name: IC50 (µM)

The cases that follow already have their IC50 on record.
C/C=C(\C)[C@@H]1C(C)=C[C@@H]2C[C@H](O)C[C@H](C)[C@H]2[C@@H]1/C=C/C=C/C(=O)O ... 19
C/C=C(\C)[C@@H]1C(C)=C[C@@H]2C[C@@H](O)C[C@H](C)[C@H]2[C@@H]1/C=C/C=C/C(=O)O ... 19
C/C=C(\C)[C@@H]1C(C)=C[C@@H]2CC(=O)C[C@H](C)[C@H]2[C@@H]1/C=C/C=C/C(=O)O ... 11.8
CC(=O)OC/C=C(\C)[C@@H]1C(C)=C[C@@H]2CC[C@H](O)[C@H](C)[C@H]2[C@@H]1/C=C/C=C/C(=O)O ... 13.6

1 = C/C=C(\C)[C@@H]1C(C)=C[C@@H]2C[C@@H](OC(C)=O)C[C@H](C)[C@H]2[C@@H]1/C=C/C=C/C(=O)O
2 = CC1=C[C@@H]2CCC[C@H](C)[C@H]2[C@H](/C=C/C=C/C(=O)O)[C@@H]1/C(C)=C/CO
QUERY: Return label of the item with the larger IC50. Candidates: 1 , 2 . Which one? Tell me its label.
RESULT: 2

---

Tested on: Zika virus
Test: Inhibition of NS5 in Zika virus at 50 ug/ml after 10 mins in presence of nucleotide mix by fluorescence assay
Conditions: dose 50.0 µg/ml
Measurement Name: inhibition (%)

Would you please look over these solved cases?
CC(=O)OC/C=C(\C)[C@@H]1C(C)=C[C@@H]2CC[C@@H](O)[C@H](C)[C@H]2[C@@H]1/C=C/C=C/C(=O)O ... 39.6
CC1=C[C@@H]2CC(=O)C[C@H](C)[C@H]2[C@H](/C=C/C=C/C(=O)O)[C@@H]1/C(C)=C/CO ... 25.5
CC1=C[C@@H]2C[C@@H](O)C[C@H](C)[C@H]2[C@H](/C=C/C=C/C(=O)O)[C@@H]1/C(C)=C/CO ... 15

1 = C/C=C(\C)[C@@H]1C(C)=C[C@@H]2CC(=O)C[C@H](C)[C@H]2[C@@H]1/C=C/C=C/C(=O)O
2 = CC1=C[C@@H]2CC[C@@H](O)[C@H](C)[C@H]2[C@H](/C=C/C=C/C(=O)O)[C@@H]1/C(C)=C/CO
3 = CC1=C[C@@H]2C[C@H](O)C[C@H](C)[C@H]2[C@H](/C=C/C=C/C(=O)O)[C@@H]1/C(C)=C/CO
QUERY: Descending sort on inhibition required. The reply should contain the labels ordered as requested.
RESULT: 1, 2, 3

1 = CC(=O)OC/C=C(\C)[C@@H]1C(C)=C[C@@H]2CC[C@H](O)[C@H](C)[C@H]2[C@@H]1/C=C/C=C/C(=O)O
2 = CC(=O)OC/C=C(\C)[C@@H]1C(C)=C[C@@H]2CC(=O)C[C@H](C)[C@H]2[C@@H]1/C=C/C=C/C(=O)O
3 = CC1=C[C@@H]2CCC[C@H](C)[C@H]2[C@H](/C=C/C=C/C(=O)O)[C@@H]1/C(C)=C/CO
QUERY: Hello, I need these entries ordered by inhibition, highest reading first. Thanks! In plain terms: list the labels in the order you were asked to.
RESULT: 1, 3, 2
(1: 56.3%, 3: 38.3%, 2: 25.4%)
